Parameter: kcat/Km. Scope: all listed entries.
Substrate: [O]=[Cr](=[O])([OH])[OH]
Assay: purified protein
Details: 1 mM NADH, 50 mM Tris-Cl pH 7.0, 22°C
Value expressed in M⁻¹ s⁻¹; do not type the unit.

Illustrative cases are given below, each with its answer.
1. YcnD_Bs (Bacillus subtilis subsp. subtilis str. 168) (protein) MNEVIKSLTDHRSIRSYTDEPVAQEQLDQIIEAVQSAPSSINGQQVTVITVQDKERKKKISELAGGQPWIDQAPVFLLFCADFNRAKIALEDLHDFKMEITNGLESVLVGAVDAGIALGTATAAAESLGLGTVPIGAVRGNPQELIELLELPKYVFPLSGLVIGHPADRSAKKPRLPQEAVNHQETYLNQDELTSHIQAYDEQMSEYMNKRTNGKETRNWSQSIASYYERLYYPHIREMLEKQGFKVEK ... 5000
2. YdgI_Bs (Bacillus subtilis subsp. subtilis str. 168) (protein) MIKTNDFMEIMKGRRSIRNYDPAVKISKEEMTEILEEATTAPSSVNAQPWRFLVIDSPEGKEKLAPLASFNQTQVTTSSAVIAVFADMNNADYLEEIYSKAVELGYMPQEVKDRQIAALTAHFEKLPAQVNRETILIDGGLVSMQLMLTARAHGYDTNPIGGYDKENIAETFGLDKERYVPVMLLSIGKAADEGYASYRLPIDTIAEWK ... 7700

Switching to the query record.
# input Which kcat/Km is reported for this protein? NfsB_Vv (Vibrio vulnificus YJ016) (protein) MTIVQAAQSRYSTKAFDASRKLPEEKVAAVKELIRMSASSVNSQPWHFIVASSEEGKARIAKATQGGFAFNERKILDASHVVVFCAKTAIDEAYLLDLLESEDKDGRFADVEAKNGMHAGRSFFVNMHRFDLKDAHHWMEKQVYLNVGTLLLGASAMEIDAVPIEGFDAKVLDEEFGLREKGFTSVVIVPLGYHSEDDFNAKLPKSRWSAETVFTEI
# output 360
